# Test system: SIHA cell line
# protocol: MTT anti-proliferative assay, SIHA
# Assay type: cell-based
# assayContext: Homo sapiens, 48 h, incubated for 2 days, read-out: IC50 against SIHA
The entries below come with measured IC50 values attached.

| compound | IC50 |
| --- | --- |
| Oc1ccc(F)cc1/C=N/Cc1nc2ccccc2[nH]1 | 53.4 µM |
| O=c1[nH]cc(F)c(=O)[nH]1 [5‐FU, 5-fluorouracil, reference compound] | 6.2 µM |

====

# System: Ehrlich–Lettre ascites carcinoma (EAC) cell line
# protocol: MTT anti-proliferative assay, EAC
# Type: cell-based
# assayContext: 48 h, incubated for 2 days, read-out: IC50 against EAC
pIC50: −log10 of the molar value.
Listing of entries alongside the reported pIC50.
reportedMetric: pIC50

| compound | testedTarget | testResult |
| --- | --- | --- |
| Oc1ccc(F)cc1/C=N/Cc1nc2ccccc2[nH]1 [HBMF] | Ehrlich–Lettre ascites carcinoma (EAC) cell line | 4.32 |
| O=c1[nH]cc(F)c(=O)[nH]1 [5‐FU, 5-fluorouracil, reference compound] | Ehrlich–Lettre ascites carcinoma (EAC) cell line | 5.21 |
